System: NCI-H322M
Protocol description: Cytotoxicity against human NCI-H322M cells
Type: functional
Readout label: log10(TGI) (log10 of the value in nM)
Lab note - TGI converted to log10 from values in nM.

Solved entries (count: 5):
{"Molecule": "C/C=C1\\NC(=O)[C@H](Cc2ccccc2)NC(=O)[C@@H](C(C)C)NC(=O)[C@@H]([C@@H](C)CC)NC(=O)[C@H](NC(=O)[C@H](NC(=O)[C@H](CCCNCc2ccncc2)NC(=O)[C@H]2CCCN2C(=O)[C@H](NC(=O)[C@@H](NC(=O)[C@@H](NC(=O)[C@H](NC(=O)CCCC(C)C)C(C)C)[C@@H](C)O)C(C)C)C(C)C)[C@@H](C)CC)[C@@H](C)OC(=O)[C@H](C(C)C)NC1=O", "Study system": "NCI-H322M", "log10(TGI)": 2.38}
{"Molecule": "CC(=O)O[C@H]1C(=O)[C@@]2(C)[C@H]([C@H](OC(=O)c3ccccc3)[C@]3(O)C[C@H](OC(=O)[C@H](O)[C@@H](NC(=O)c4ccccc4)c4ccccc4)C(C)=C1C3(C)C)[C@]1(OC(C)=O)CO[C@@H]1C[C@@H]2O [PACLITAXEL]", "Study system": "NCI-H322M", "log10(TGI)": 3.80}
{"Molecule": "C/C=C1\\NC(=O)[C@H](Cc2ccccc2)NC(=O)[C@@H](C(C)C)NC(=O)[C@@H]([C@H](C)CC)NC(=O)[C@H](NC(=O)[C@H](NC(=O)[C@H](CCCN)NC(=O)[C@H]2CCCN2C(=O)[C@H](NC(=O)[C@@H](NC(=O)[C@@H](NC(=O)[C@H](NC(=O)CCCC(C)C)C(C)C)[C@@H](C)O)C(C)C)C(C)C)[C@H](C)CC)[C@H](C)OC(=O)[C@H](C(C)C)NC1=O [KAHALALIDE F]", "Study system": "NCI-H322M", "log10(TGI)": 2.57}
{"Molecule": "C/C=C1\\NC(=O)[C@H](Cc2ccccc2)NC(=O)[C@@H](C(C)C)NC(=O)[C@@H]([C@@H](C)CC)NC(=O)[C@H](NC(=O)[C@H](NC(=O)[C@H](CCCNC(=O)c2cc3ccc(N(CC)CC)cc3oc2=O)NC(=O)[C@H]2CCCN2C(=O)[C@H](NC(=O)[C@@H](NC(=O)[C@@H](NC(=O)[C@H](NC(=O)CCCC(C)C)C(C)C)[C@@H](C)O)C(C)C)C(C)C)[C@@H](C)CC)[C@@H](C)OC(=O)[C@H](C(C)C)NC1=O", "Study system": "NCI-H322M", "log10(TGI)": 2.69}
{"Molecule": "C/C=C1\\NC(=O)[C@H](Cc2ccccc2)NC(=O)[C@@H](C(C)C)NC(=O)[C@@H]([C@@H](C)CC)NC(=O)[C@H](NC(=O)[C@H](NC(=O)[C@H](CCCNCc2cccs2)NC(=O)[C@H]2CCCN2C(=O)[C@H](NC(=O)[C@@H](NC(=O)[C@@H](NC(=O)[C@H](NC(=O)CCCC(C)C)C(C)C)[C@@H](C)O)C(C)C)C(C)C)[C@@H](C)CC)[C@@H](C)OC(=O)[C@H](C(C)C)NC1=O", "Study system": "NCI-H322M", "log10(TGI)": 2.48}

Q: Could you tell me which log10(TGI) is on file for `C/C=C1\NC(=O)[C@H](Cc2ccccc2)NC(=O)[C@@H](C(C)C)NC(=O)[C@@H]([C@@H](C)CC)NC(=O)[C@H](NC(=O)[C@H](NC(=O)[C@H](CCCNCc2ccc(F)cc2)NC(=O)[C@H]2CCCN2C(=O)[C@H](NC(=O)[C@@H](NC(=O)[C@@H](NC(=O)[C@H](NC(=O)CCCC(C)C)C(C)C)[C@@H](C)O)C(C)C)C(C)C)[C@@H](C)CC)[C@@H](C)OC(=O)[C@H](C(C)C)NC1=O` ?
Ans: 2.63

All figures here come from ChEMBL document CHEMBL1148762.
